# experiment_notes: Ferric reducing antioxidant power (FRAP) assay
# reported_conditions: expressed in µM FeCl2; isolated compounds at 200 µg/mL
Below, each of the molecules is paired with its reported FRAP value value.
Please respond with the number in µM and leave the unit unwritten.

Observe how each entry below is paired with its result.
COc1ccc(-c2oc3cc(O[C@@H]4O[C@@H](C)[C@H](O)[C@@H](O)[C@H]4O)cc(O)c3c(=O)c2O[C@@H]2O[C@@H](C)[C@H](O)[C@@H](O)[C@H]2O)cc1 [Compound 4] = 1812
C[C@@H]1O[C@@H](Oc2cc(O)c3c(=O)c(O[C@@H]4O[C@H](CO)[C@@H](O)[C@H](O)[C@H]4O)c(-c4ccc(O)c(O)c4)oc3c2)[C@H](O)[C@H](O)[C@H]1O [Compound 1] = 3106
COc1cc(-c2oc3cc(O[C@@H]4O[C@@H](C)[C@H](O)[C@@H](O)[C@H]4O)cc(O)c3c(=O)c2O[C@@H]2O[C@@H](C)[C@H](OC(C)=O)[C@@H](O)[C@H]2O)ccc1O [Compound 5] = 3610

# evaluate next
Input: Report FRAP value, nothing else, for this molecule: O=C1O[C@H]([C@@H](O)CO)C(O)=C1O [ascorbic acid, reference compound]
Output: 685.2
